# assay overview: Protein binding in mouse serum assessed as fraction unbound
# Format: ADME, cell-free
# stated conditions: read-out: PB
assay endpoint: fraction unbound

I: O=C(N[C@@H]1CC[C@@]2(S(=O)(=O)c3ccc(F)cc3)c3ccc(C(F)(C(F)(F)F)C(F)(F)F)cc3CC[C@@H]12)C1CCS(=O)(=O)CC1
II: N#CCCN1C(=O)CC[C@H]1C(=O)N1CC[C@@]2(S(=O)(=O)c3ccc(F)cc3)c3ccc(C(F)(C(F)(F)F)C(F)(F)F)cc3CC[C@@H]12
III: CC(C)(O)CC(=O)N[C@@H]1CC[C@@]2(S(=O)(=O)c3ccc(F)cc3)c3ccc(C(F)(C(F)(F)F)C(F)(F)F)cc3CC[C@@H]12
Sort ascending by fraction unbound: all records listed above. Rank the items, then write their labels in that order. I, III, II

###

Target or system Cytochrome P450 2C19 (Homo sapiens); recorded quantity IC50.
assay endpoint: IC50 (µM)

I: CC(C)(O)CC(=O)N[C@@H]1CC[C@@]2(S(=O)(=O)c3ccc(F)cc3)c3ccc(C(F)(C(F)(F)F)C(F)(F)F)cc3CC[C@@H]12
II: CC(C)(O)CC(=O)N[C@@H]1CC[C@@]2(S(=O)(=O)c3ccc(F)cc3)c3ccc(C(F)(C(F)(F)F)C(F)(F)F)nc3CC[C@@H]12
For the two items I and II , which reports the higher IC50 value? Pick one; state its label. II
(II: 16 µM, I: 7.7 µM)

###

# experimental target: UniProtKB P51449
# Sequence (P51449 whole entry, the tested form may be a part): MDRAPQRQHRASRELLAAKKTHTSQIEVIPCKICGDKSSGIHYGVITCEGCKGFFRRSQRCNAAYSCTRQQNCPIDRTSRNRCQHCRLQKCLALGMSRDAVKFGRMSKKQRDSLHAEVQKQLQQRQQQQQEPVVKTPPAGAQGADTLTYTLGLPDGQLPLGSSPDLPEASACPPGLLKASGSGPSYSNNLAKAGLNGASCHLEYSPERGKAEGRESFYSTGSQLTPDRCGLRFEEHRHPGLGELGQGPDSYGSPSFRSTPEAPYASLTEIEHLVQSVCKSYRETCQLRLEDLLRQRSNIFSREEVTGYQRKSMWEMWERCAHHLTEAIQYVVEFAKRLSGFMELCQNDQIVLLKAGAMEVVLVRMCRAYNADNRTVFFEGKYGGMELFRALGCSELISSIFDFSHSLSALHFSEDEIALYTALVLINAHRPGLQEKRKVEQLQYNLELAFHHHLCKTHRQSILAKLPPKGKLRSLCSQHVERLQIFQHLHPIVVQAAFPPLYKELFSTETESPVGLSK
# assay overview: Inverse agonist activity at human Gal4-fused RORgammat expressed in human Jurkat cells luciferase reporter gene assay
# Type: cell-based
assay endpoint: EC50 (nM)

Some molecules with known EC50 results, for comparison:
>  <record smiles>
N#CCCN1C(=O)CC[C@H]1C(=O)N1CC[C@@]2(S(=O)(=O)c3ccc(F)cc3)c3ccc(C(F)(C(F)(F)F)C(F)(F)F)nc3CC[C@@H]12

>  <unit label>
nM

>  <EC50>
24

$$$$
>  <record smiles>
CC(C)(O)CC(=O)N[C@@H]1CC[C@@]2(S(=O)(=O)c3ccc(F)cc3)c3ccc(C(F)(C(F)(F)F)C(F)(F)F)nc3CC[C@@H]12

>  <unit label>
nM

>  <EC50>
6

$$$$

I: C[C@](O)(CS(C)(=O)=O)C(=O)N[C@@H]1CC[C@@]2(S(=O)(=O)c3ccc(F)cc3)c3ccc(C(F)(C(F)(F)F)C(F)(F)F)cc3CC[C@@H]12
II: O=C(N[C@@H]1CC[C@@]2(S(=O)(=O)c3ccc(F)cc3)c3ccc(C(F)(C(F)(F)F)C(F)(F)F)cc3CC[C@@H]12)C1CCS(=O)(=O)CC1
Between I and II , whose measured EC50 reads higher? Output the label that corresponds to your choice. II

1: O=C(C1CCS(=O)(=O)CC1)N1CC[C@@]2(S(=O)(=O)c3ccc(F)cc3)c3cnc(C(F)(C(F)(F)F)C(F)(F)F)cc3CC[C@@H]12
2: C[C@@](O)(CS(C)(=O)=O)C(=O)N[C@@H]1CC[C@@]2(S(=O)(=O)c3ccc(F)cc3)c3ccc(C(F)(C(F)(F)F)C(F)(F)F)cc3CC[C@@H]12
3: O=C(N[C@@H]1CC[C@@]2(S(=O)(=O)c3ccc(F)cc3)c3ccc(C(F)(C(F)(F)F)C(F)(F)F)nc3CC[C@@H]12)C1CCS(=O)(=O)CC1
4: O=C(C1CCS(=O)(=O)CC1)N1CC[C@@]2(S(=O)(=O)c3ccc(F)cc3)c3ncc(C(F)(C(F)(F)F)C(F)(F)F)cc3CC[C@@H]12
5: CC(C)(O)C(=O)N[C@@H]1CC[C@@]2(S(=O)(=O)c3ccc(F)cc3)c3ccc(C(F)(C(F)(F)F)C(F)(F)F)nc3CC[C@@H]12
Provide the items ranked by increasing EC50. Write the labels out in the order the request specifies. 2, 5, 3, 1, 4
(2: 2.5 nM, 5: 3.9 nM, 3: 8.4 nM, 1: 17 nM, 4: 71 nM)
